Field: IC50, inhibition of IL-8 secretion from HT-29 cells (EL4-NC-LIGHT cells). Provide a value for each of the binders that follow.
# ASSAY SYSTEM: membrane LIGHT without residues 81-84 (EL4-NC-LIGHT cells) (human, UniProt O43557 1-240)
# Sequence (O43557 other isoform, or with tags, fused parts or gaps): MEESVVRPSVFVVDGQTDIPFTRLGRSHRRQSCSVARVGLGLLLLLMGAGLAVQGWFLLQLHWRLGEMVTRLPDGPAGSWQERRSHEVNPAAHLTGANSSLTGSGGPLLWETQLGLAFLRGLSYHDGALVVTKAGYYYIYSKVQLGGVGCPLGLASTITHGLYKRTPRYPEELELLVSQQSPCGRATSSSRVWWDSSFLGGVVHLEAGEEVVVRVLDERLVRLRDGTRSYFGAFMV
# ASSAY DETAILS: cell-based or functional assay
One number for each entry, in nM.

[[record]]
binder = "3D12_var16 (antibody, human IgG4, V domains shown, human IgG4 (S241P, L248E, Kabat); also called 3D12 VL4VH4 (var16)) VH: QVQLVQSGAEVKKPGASVKVSCKASGYTFTDSEMHWVRQAPGQGLEWMGEIDPETGGTAYAQKFQGRVTLTADKSTSTAYMELSSLRSEDTAVYYCSRETDYFFDYWGQGTLVTVSS VL: DIQMTQSPSSLSASVGDRVTITCRASENIYGALNWYQQKPGKAPKLLIYGATNLAEGVPSRFSGSGSGRDYTLTISSLQPEDVATYYCQNVLSTPWTFGQGTKLEIKR"
recorded_number = 0.52

[[record]]
binder = "3D12_var11 (antibody, human IgG4, V domains shown, human IgG4 (S241P, L248E, Kabat); also called 3D12 VL3VH3 (var11)) VH: QVQLVQSGAEVKKPGASVKVSCKASDYTFTDSEIHWVRQAPGQGLEWMGEIDPETGGTAYAQKFQGRVTLTADKSTSTAYMELSSLRSEDTAVYYCSRETDYFFDYWGQGTLVTVSS VL: DIQMTQSPSSLSASVGDRVTITCGASENIYGALNWYQQKPGKAPKLLIYGATNLADGVPSRFSGSGSGRDYTLTISSLQPEDVATYYCQNVLSTPWTFGQGTKLEIKR"
recorded_number = 0.55


Please supply IC50, inhibition of IL-8 secretion from HT-29 cells (EL4-NC-LIGHT cells) for each of the following items, keeping them in order.
1. 3D12_var5 (antibody, human IgG4, V domains shown, human IgG4 (S241P, L248E, Kabat); also called 3D12 VL2VH1 (var5)) VH: QVQLVQSGAEVKKPGASVKVSCKASDYTFTDSEIHWVRQAPGQGLEWIGEIDPETGGTAYNQKFKGRATLTADKSTSTAYMELSSLRSEDTAVYYCSRETDYFFDYWGQGTLVTVSS VL: DIQMTQSPSSLSASVGDRVTITCGASENIYGALNWYQRKQGKAPKLLIYGATNLADGVPSRFSGSGSGRDYTLTISSLQPEDVATYYCQNVLSTPWTFGQGTKLEIKR
2. 3D12_var8 (antibody, human IgG4, V domains shown, human IgG4 (S241P, L248E, Kabat); also called 3D12 VL2VH4 (var8)) VH: QVQLVQSGAEVKKPGASVKVSCKASGYTFTDSEMHWVRQAPGQGLEWMGEIDPETGGTAYAQKFQGRVTLTADKSTSTAYMELSSLRSEDTAVYYCSRETDYFFDYWGQGTLVTVSS VL: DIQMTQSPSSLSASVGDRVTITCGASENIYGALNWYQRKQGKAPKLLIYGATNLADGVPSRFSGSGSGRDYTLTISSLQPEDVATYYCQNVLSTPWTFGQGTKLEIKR
3. 3B04_var10 (antibody, human IgG4, V domains shown, human IgG4 (S241P, L248E, Kabat); also called 3B04 VL3VH2 (var10)) VH: QVQLVQSGAEVKKPGASVKVSCKASGYTFTDYEMHWVRQAPGQGLEWIGEIDPETGDTAYSQKFQGRVTLTADKSTSTAYMEFSSLRSEDTAVYYCSRETDYFFDYWGQGTLVTVSS VL: DIQMTQSPSSLSASVGDRVTITCGASENIYGALNWYQQKPGKAPKLLIYGATNLADGVPSRFSGSGSGRDYTLTISSLQPEDFATYYCQNVLTTPWTFGQGTKLEIKR

Output:
1: 0.59; 2: 0.67; 3: 0.04
